The reported measurements were obtained from paper PMC10687260.

Experiment: Stability in human hepatic microsomes
Format: in vitro ADME
Details: 1 mg/mL hepatic microsomes, 1 µM compound, read-out: Half-life t1/2 Human

# compound, comparison-symbol, half-life at 1 µM, min
rows = [
    ("COc1ccc(NC(=O)Nc2ccc(CCC(=O)NO)cc2)cc1", ">", 120),
    ("COc1ccc(NC(=O)Nc2ccc(/C=C/C(=O)NO)cc2)cc1", "=", 39.6),
    ("CCN(CC)CCNC(=O)c1c(C)[nH]c(/C=C2\\C(=O)Nc3ccc(F)cc32)c1C [Sunitinib, reference compound]", "=", 22.3),
    ("O=C(Nc1ccccc1)Nc1ccc(C(=O)NO)cc1 [Compound 8a, N-hydroxy-4-(3-phenylureido)bezamide]", ">", 120),
]

----------
quantity-measured: melting point

# compound, quantity-measured, measured-value
measured = [
    ("O=C(CCc1ccc(NC(=O)Nc2ccccc2)cc1)NO [Compound 7a]", "melting point", "304 °C (dec.)"),
    ("O=C(Nc1ccc(Cl)cc1)Nc1ccc(C(=O)NO)cc1 [Compound 8b]", "melting point", "357 °C (dec.)"),
    ("O=C(Nc1ccccc1)Nc1ccc(C(=O)NO)cc1 [Compound 8a, N-hydroxy-4-(3-phenylureido)bezamide]", "melting point", "304 °C (dec.)"),
    ("O=C(Nc1ccc(C(=O)NO)cc1)Nc1ccc([N+](=O)[O-])cc1 [Compound 8d]", "melting point", "312 °C (dec.)"),
    ("COc1ccc(NC(=O)Nc2ccc(/C=C/C(=O)NO)cc2)cc1 [Compound 6c]", "melting point", "210 °C (dec.)"),
    ("O=C(CCc1ccc(NC(=O)Nc2ccc(Cl)cc2)cc1)NO [Compound 7b]", "melting point", "286 °C (dec.)"),
    ("O=C(/C=C/c1ccc(NC(=O)Nc2ccccc2)cc1)NO [Compound 6a]", "melting point", "202 to 204 °C"),
    ("N/C(=N\\O)c1ccc(NC(=O)Nc2ccc(C(=O)NO)cc2)cc1 [8 h]", "melting point", "97 to 99 °C"),
    ("O=C(/C=C/c1ccc(NC(=O)Nc2ccc([N+](=O)[O-])cc2)cc1)NO [Compound 6d]", "melting point", "167 to 168 °C"),
    ("COc1ccc(NC(=O)Nc2ccc(CCC(=O)NO)cc2)cc1 [Compound 7c]", "melting point", "202 to 204 °C"),
    ("N#Cc1ccc(NC(=O)Nc2ccc(C(=O)NO)cc2)cc1 [8 k]", "melting point", "220 to 222 °C"),
]

----------
Below: a set of entries, each annotated with reported half-life at 1 µM.
Assay: Stability in human hepatic microsomes
Type: in vitro ADME
Conditions: 1 mg/mL hepatic microsomes, 1 µM compound, read-out: Half-life t1/2 Human
quantity-measured: half-life at 1 µM (h)

# compound, comparison-symbol, measured-value
measured = [
    ("O=C(Nc1ccc(C(=O)NO)cc1)Nc1ccc([N+](=O)[O-])cc1 [Compound 8d]", ">", 2),
    ("COc1ccc(NC(=O)Nc2ccc(C(=O)NO)cc2)cc1 [Compound 8c]", "=", 1.65),
    ("O=C(Nc1ccc(Cl)cc1)Nc1ccc(C(=O)NO)cc1 [Compound 8b]", "=", 1.1),
]

----------
pIC50: −log10 of the molar value.
Target or system human HDAC6 (Homo sapiens, UniProt Q9UBN7): recorded pIC50 listed per item.

# compound, assayed-system, pIC50
data = [
    ("N/C(=N\\O)c1ccc(NC(=O)Nc2ccc(C(=O)NO)cc2)cc1", "human HDAC6 (Homo sapiens, UniProt Q9UBN7)", 7.67),
    ("O=C(/C=C/c1ccc(NC(=O)Nc2ccccc2)cc1)NO", "human HDAC6 (Homo sapiens, UniProt Q9UBN7)", 7.91),
    ("COc1ccc(NC(=O)Nc2ccc(CCC(=O)NO)cc2)cc1", "human HDAC6 (Homo sapiens, UniProt Q9UBN7)", 6.82),
    ("O=C(Nc1ccccc1)Nc1ccc(C(=O)NO)cc1 [Compound 8a, N-hydroxy-4-(3-phenylureido)bezamide]", "human HDAC6 (Homo sapiens, UniProt Q9UBN7)", 8.07),
    ("O=C(CCc1ccc(NC(=O)Nc2ccccc2)cc1)NO", "human HDAC6 (Homo sapiens, UniProt Q9UBN7)", 6.82),
    ("O=C(Nc1ccc(C(=O)NO)cc1)Nc1ccc([N+](=O)[O-])cc1", "human HDAC6 (Homo sapiens, UniProt Q9UBN7)", 7.87),
    ("O=C(/C=C/c1ccc(NC(=O)Nc2ccc(Cl)cc2)cc1)NO", "human HDAC6 (Homo sapiens, UniProt Q9UBN7)", 7.84),
    ("O=C(/C=C/c1ccc(NC(=O)Nc2ccc([N+](=O)[O-])cc2)cc1)NO", "human HDAC6 (Homo sapiens, UniProt Q9UBN7)", 8.05),
    ("COc1ccc(NC(=O)Nc2ccc(/C=C/C(=O)NO)cc2)cc1", "human HDAC6 (Homo sapiens, UniProt Q9UBN7)", 8.11),
]

----------
Assay: Stability in human hepatic microsomes
Assay type: in vitro ADME
Conditions: read-out: Intrinsic clearance Clint Human
quantity-measured: microsomal CLint at 1 µM (µL/min/mg)

# molecule, comparison-symbol, measured-value
data = [
    ("O=C(Nc1ccccc1)Nc1ccc(C(=O)NO)cc1 [Compound 8a, N-hydroxy-4-(3-phenylureido)bezamide]", "<", 6),
    ("COc1ccc(NC(=O)Nc2ccc(CCC(=O)NO)cc2)cc1 [Compound 7c]", "<", 6),
    ("O=C(Nc1ccc(C(=O)NO)cc1)Nc1ccc([N+](=O)[O-])cc1 [Compound 8d]", "<", 6),
    ("COc1ccc(NC(=O)Nc2ccc(C(=O)NO)cc2)cc1 [Compound 8c]", "=", 7),
    ("O=C(Nc1ccc(Cl)cc1)Nc1ccc(C(=O)NO)cc1 [Compound 8b]", "=", 10),
    ("COc1ccc(NC(=O)Nc2ccc(/C=C/C(=O)NO)cc2)cc1 [Compound 6c]", "=", 17),
    ("CCN(CC)CCNC(=O)c1c(C)[nH]c(/C=C2\\C(=O)Nc3ccc(F)cc32)c1C [Sunitinib, reference compound]", "=", 31),
]

----------
Dear all, this message contains IC50 results, target or system HDAC8 (Homo sapiens, UniProt Q9BY41).

# compound, IC50 [nM]
measured = [
    ("N#Cc1ccc(NC(=O)Nc2ccc(C(=O)NO)cc2)cc1 [8 k]", 51.5),
    ("O=C(Nc1ccc(C(=O)NO)cc1)Nc1ccc([N+](=O)[O-])cc1 [Compound 8d]", 68.1),
    ("COc1ccc(NC(=O)Nc2ccc(CCC(=O)NO)cc2)cc1 [Compound 7c]", 362),
]

----------
As a worked illustration, we turn to IC50 data collected for human HDAC1 (Homo sapiens).

# molecule, IC50 / µM
measured = [
    ("N/C(=N\\O)c1ccc(NC(=O)Nc2ccc(C(=O)NO)cc2)cc1", 8.3),
    ("N#Cc1ccc(NC(=O)Nc2ccc(C(=O)NO)cc2)cc1", 3.75),
    ("O=C(/C=C/c1ccc(NC(=O)Nc2ccccc2)cc1)NO", 1.35),
    ("O=C(Nc1ccccc1)Nc1ccc(C(=O)NO)cc1 [Compound 8a, N-hydroxy-4-(3-phenylureido)bezamide]", 5.33),
    ("O=C(Nc1ccc(C(=O)NO)cc1)Nc1ccc([N+](=O)[O-])cc1", 3.74),
]

----------
Biological target: UniProt Q9BY41
Using IC50 as the sorting value, the categories are bucket 1: < 90 nM; bucket 2: ≥ 90 nM and < 200 nM; bucket 3: ≥ 200 nM

# compound, cat
data = [
    ("COc1ccc(NC(=O)Nc2ccc(C(=O)NO)cc2)cc1", "bucket 2"),
    ("O=C(CCc1ccc(NC(=O)Nc2ccc(Cl)cc2)cc1)NO", "bucket 3"),
    ("O=C(/C=C/c1ccc(NC(=O)Nc2ccc([N+](=O)[O-])cc2)cc1)NO", "bucket 2"),
    ("O=C(/C=C/c1ccc(NC(=O)Nc2ccccc2)cc1)NO", "bucket 2"),
    ("O=C(Nc1ccc(Cl)cc1)Nc1ccc(C(=O)NO)cc1", "bucket 1"),
    ("O=C(Nc1ccccc1)Nc1ccc(C(=O)NO)cc1 [Compound 8a, N-hydroxy-4-(3-phenylureido)bezamide]", "bucket 2"),
    ("COc1ccc(NC(=O)Nc2ccc(/C=C/C(=O)NO)cc2)cc1", "bucket 1"),
    ("N/C(=N\\O)c1ccc(NC(=O)Nc2ccc(C(=O)NO)cc2)cc1", "bucket 2"),
    ("O=C(CCc1ccc(NC(=O)Nc2ccccc2)cc1)NO", "bucket 3"),
]

----------
Assay: Stability in mouse hepatic microsomes
Type: in vitro ADME
Conditions: 1 mg/mL hepatic microsomes, 1 µM compound, read-out: Half-life t1/2 Mouse
Property: half-life at 1 µM; scope: individual compounds

# compound, half-life at 1 µM / min
records = [
    ("COc1ccc(NC(=O)Nc2ccc(/C=C/C(=O)NO)cc2)cc1 [Compound 6c]", 4.4),
    ("O=C(Nc1ccccc1)Nc1ccc(C(=O)NO)cc1 [Compound 8a, N-hydroxy-4-(3-phenylureido)bezamide]", 10.1),
    ("O=C(Nc1ccc(C(=O)NO)cc1)Nc1ccc([N+](=O)[O-])cc1 [Compound 8d]", 13.8),
    ("O=C(Nc1ccc(Cl)cc1)Nc1ccc(C(=O)NO)cc1 [Compound 8b]", 4),
    ("COc1ccc(NC(=O)Nc2ccc(CCC(=O)NO)cc2)cc1 [Compound 7c]", 4.1),
    ("COc1ccc(NC(=O)Nc2ccc(C(=O)NO)cc2)cc1 [Compound 8c]", 2.5),
    ("CCN(CC)CCNC(=O)c1c(C)[nH]c(/C=C2\\C(=O)Nc3ccc(F)cc32)c1C [Sunitinib, reference compound]", 9.1),
]
